Test system: MDA-MB-435 melanoma
Procedure Text: NCI-60 one-dose screen, 48 h
Condition Summary: 10 µM unless noted
This is part of a sample that, as a whole, favours compounds with a hit. Of some 83,000 tested, about 20% had one in any assay. The source made the active and inactive calls. How the source made its calls: active means growth percent below 10; inactive means the rest.
Result category, one only: YES (active), NO (inactive)

Ask: Hi, sorry to bother you, what did the test record for `O=[N+]([O-])c1ccc(Sc2ncccn2)c([N+](=O)[O-])c1` ?
Reply: NO

Ask: Please let me know the test result on file for `CC(=O)Oc1cccc(S(=O)(=O)n2cc(C(=O)C(=O)Nc3ccncc3)c3ccccc32)c1` .
Reply: NO

Ask: # outcome recorded in this test, key = C=C1CCC2C3(C)COC(c4ccc(N(C)C)cc4)OC3CCC2(C)C1C/C=C1/C(=O)OCC1O (stereo not drawn)
Reply: YES

Ask: Please state the recorded outcome for this compound: `Cc1ccc(S(=O)(=O)NCCCNc2cc(-c3cn(C(C)(C)C)nc3-c3cccc(O)c3)ccn2)cc1`
Reply: NO

Ask: Field: outcome | Entry: COc1ccc(C2CC(c3ccc(OC)cc3OC)=NN2c2ccc(S(N)(=O)=O)cc2)cc1 (stereo not drawn)
Reply: NO

Ask: Lab log entry: `C=C(C)[C@@H]1CC[C@]2(C(=O)N3CCNCC3)CC[C@]3(C)[C@H](CC[C@@H]4[C@@]5(C)C/C(=C/c6ccncc6)C(=O)C(C)(C)[C@@H]5CC[C@]43C)[C@@H]12` — outcome as called in the assay?
Reply: NO

Ask: For `COc1cc(Cn2cc3c(c2)-c2oncc2CC3)cc(OC)c1OC` , what call appears in the results of this test?
Reply: YES

Ask: Kindly provide the recorded test outcome for the following compound: `O=c1ccn(-c2ncnc3nc[nH]c23)cc1`
Reply: NO

Ask: What was the test verdict on `CCCC(=O)Oc1ccc(/C(=C(\C)c2ccccc2)c2ccc(OCCN(CC)CC)cc2)cc1` ?
Reply: NO

Ask: Which outcome did this test record for the compound `COc1ccc(Nc2nn3c(C)cc(C)nc3c2C(=O)Nc2ccc(C)cc2)c(OC)c1` ?
Reply: NO

Ask: In this assay, the call recorded for CN(C)c1ncnc2c1ccn2C1OC(CO)C(O)C1O (stereo not drawn) was what?
Reply: NO

Ask: I would be grateful if you could indicate the recorded call for `COc1ccc(/C=C2\Oc3cc(OCCCN4CCCC4)ccc3C2=O)c(OC)c1` .
Reply: NO

Ask: # lookup: test call for `O=C(Nc1cccc(-n2cc(-c3ccncc3)c(-c3ccc(Cl)c(O)c3)n2)c1)Nc1ccc(Cl)c(Cl)c1`
Reply: YES

----------
Tested on: SK-MEL-2 melanoma
Procedure Text: NCI-60 one-dose screen, 48 h (100 = growth as untreated, 0 = no growth, -100 = all killed)
Condition Summary: 10 µM unless noted
Compounds without any hit were thinned out: in the full panel of roughly 83,000, 20% have a hit.
Recorded growth values for a group of molecules are listed next.
Numbers only here, please. The scale is %.

{"Molecule": "CN(C)c1nc2c(N)ncnc2n1C1OC(CO)C(O)C1O (stereo not drawn)", "growth (%)": 99.4}
{"Molecule": "Cc1ccc(NS(=O)(=O)c2cc(C)ccc2C)cc1", "growth (%)": 20.3}

Now for a further molecule.
Ask: Given `C=CCn1cc(-c2nc3ccccc3s2)c2cc(-c3ccc4c5c(cccc35)C(=O)N(CCN3CCNCC3)C4=O)ccc21` , respond with its growth.
Reply: 99

----------
System: SNB-75 CNS
Procedure Text: NCI-60 one-dose screen, 48 h (100 = growth as untreated, 0 = no growth, -100 = all killed)
Condition Summary: 10 µM
This is part of a sample that, as a whole, favours compounds with a hit. Of some 83,000 tested, about 20% had one in any assay.
Threshold 90%. growth below it: MET. growth at it or above: NOT MET.

Example cases with answers are listed next.
{"Compound": "C=C1CCC2C3(C)COC(c4ccccc4)OC3CCC2(C)C1/C=C/C1=CCOC1=O (centres undefined)", "Qualitative Label": "MET"}
{"Compound": "Nc1ncnc2c1c(-c1ccc(Oc3ccccc3)cc1)nn2C[C@@H]1SSC[C@@H]1O", "Qualitative Label": "MET"}

Ask: Consider the compound `C=C[C@@H]1C[C@H](O)Cc2ccccc2N1` . Is its growth strictly less than 90%?
Reply: NOT MET

Ask: Could you please tell me whether growth recorded for CC(C)(C)OC(=O)NC(CSCc1ccccc1)C(=O)ON1C(=O)CCC1=O (centres undefined) is less than 90%?
Reply: NOT MET

Ask: Threshold test, growth < 90%: `O=c1ccn(-c2ncnc3nc[nH]c23)cc1`
Reply: MET

----------
Tested on: NCI/ADR-RES ovarian
Procedure Text: NCI-60 one-dose screen, 48 h (100 = growth as untreated, 0 = no growth, -100 = all killed)
Condition Summary: 10 µM unless noted
The panel holds about 83,000 compounds, 20% with a hit somewhere; the sample as a whole holds those more often.
Respond with 1 (yes) for growth values of 50% and above, 0 (no) for values below.

Ask: Record `CN(C)c1cccc2c(S(=O)(=O)/N=C(\N)Nc3nc4ccccc4s3)cccc12` ; criterion: growth no lower than 50%. Met?
Reply: 0 (no)

Ask: Say whether `Cc1ccc2ccccc2c1C[n+]1ccccc1` shows growth of 50% or more.
Reply: 1 (yes)

Ask: Record `N#Cc1c(Nc2ccccc2)nc2n(c1=O)-c1ccccc1Sc1ccccc1-2` ; criterion: growth no lower than 50%. Met?
Reply: 1 (yes)

Ask: Test whether the compound `COc1cc(NC(N)=NCCC(C)(C)Oc2ccc(C(F)(F)F)cc2)ncc1C#N` records growth of 50% or higher.
Reply: 0 (no)

Ask: Is growth at least 50%? Consider `COc1ccc(-c2nc3sc(-c4cc(OC)c(OC)c(OC)c4)nn3c2/C=C2/C(=O)Nc3ccc(F)cc32)cc1`
Reply: 0 (no)

Ask: Is the recorded value of growth equal to or greater than 50% for this compound? `COc1cc(-c2nn(-c3cccc(NC(=O)c4cccc(C(F)(F)F)c4)c3)cc2-c2ccncc2)ccc1Cl`
Reply: 0 (no)

Ask: Would you say O=C1Nc2ccc(Cl)cc2C12Nc1cc(Cl)ccc1S2 (stereo not drawn) shows growth at minimum 50%?
Reply: 1 (yes)

----------
System: SF-268 CNS
Procedure Text: NCI-60 one-dose screen, 48 h
Condition Summary: 10 µM unless noted
About 83,000 compounds went through this panel and 20% of them were active in at least one assay; those are over-represented in the sample as a whole. The source made the active and inactive calls. The calls were made as follows: active = growth percent below 10; inactive = the rest.
Your answer must be one of the following: yes for active, no for inactive

Previously resolved entries follow.
{"Molecule": "COc1cc(/C=C/C(=O)N2CCN(C(=O)/C=C/c3cc(OC)c(OC)c(OC)c3)CC2)cc(OC)c1OC", "Qualitative Label": "no"}
{"Molecule": "O=C1C2(c3ccccc3)C(c3ccccc3)=C(c3ccccc3)C1(c1ccccc1)C1CC=CC12 (centres undefined)", "Qualitative Label": "no"}
{"Molecule": "COc1ccc(S(=O)(=O)Nc2cc(/C=C\\c3cc(OC)c(OC)c(OC)c3)cc(OC)c2OC)cc1", "Qualitative Label": "no"}

Ask: Could you kindly confirm the outcome this assay logged for `Cc1[nH]c2ccc(F)cc2c1CCNC(=O)C1CCN(C(=O)c2ccccc2)CC1` ?
Reply: no

----------
System: RPMI-8226 leukemia
Procedure Text: NCI-60 one-dose screen, 48 h
Condition Summary: 10 µM unless noted
Experimental: Growth inhibition of the RPMI-8226 human tumor cell line is measured as a screen for anti-cancer activity. Cells are grown in 96 well plates and exposed to the test compound for 48 hours. Compounds are tested at a single concentration, which is 10^-5 M for most compounds. The reported endpoint is percent growth (GI% or GIPRCNT), where numbers from 0 - 100% represent growth inhibition, and numbers from -100% - 0 represent cell death. For example, a value of 40 represents 60% growth inhibition. […]
This is part of a sample that, as a whole, favours compounds with a hit. Of some 83,000 tested, about 20% had one in any assay. Active and inactive are the calls of the source. Rule for the calls: active = growth percent below 10; inactive = the rest.
Pick from Yes for active, No for inactive when you respond.

{"Compound": "COC(=O)c1cc(=O)nc(N/N=C/c2ccco2)s1", "Qualitative Label": "No"}
{"Compound": "O=C1c2c(Cl)c(Cl)c(Cl)c(Cl)c2C(=O)C2(Cl)CC=CCC12Cl (stereo not drawn)", "Qualitative Label": "Yes"}
{"Compound": "COc1ccc(-c2c(N)n[nH]c2-c2cc3c(c(OC)c2OC)OCO3)cc1", "Qualitative Label": "No"}
{"Compound": "COc1cc(/C=C/c2cc(/C=C/c3ccc(O)c(OC)c3)n(C(N)=O)n2)ccc1O", "Qualitative Label": "Yes"}
{"Compound": "C/C=C/C1=CN2C(=O)c3cc(OC4OC(C)C(NC)C(C)(O)C4O)c(C)cc3N=C[C@@H]2C1 (stereo partly drawn)", "Qualitative Label": "Yes"}
{"Compound": "O=C(NNC(=O)N1c2ccccc2C=Cc2ccccc21)c1ccc2ccccc2c1", "Qualitative Label": "No"}
{"Compound": "Cc1ccc(-c2cc3nc(C(Cl)Cl)nc(-c4ccccc4C)n3n2)cc1", "Qualitative Label": "No"}
{"Compound": "C=C(C)[C@@H]1C[C@@H]2Cc3ccc(Cl)c(C)c3N1O2", "Qualitative Label": "No"}
{"Compound": "O=C(Nc1ccc(Cl)c(Cl)c1)NS(=O)(=O)c1cnccc1Oc1ccc(F)cc1", "Qualitative Label": "Yes"}
{"Compound": "O=C(Nc1cccc(-n2cc(-c3ccncc3)c(-c3ccc(Cl)c(O)c3)n2)c1)c1ccc(N2CCOCC2)c(C(F)(F)F)c1", "Qualitative Label": "Yes"}

Ask: For `O=C(CCl)N(C1CCCCC1)C1CCCCC1` , which call appears in the assay record?
Reply: No

Ask: Given `Cn1c(=O)cc(NC(=O)CN2CCN(c3cc4c(cc3F)c(=O)c(C(=O)O)cn4C3CC3)CC2)[nH]c1=O` , state the outcome it received in this test.
Reply: No

Ask: Could you kindly confirm the outcome this assay logged for `COc1cccc(/C=C2\Oc3cc(OCCCN4CCCC4)ccc3C2=O)c1` ?
Reply: No

Ask: # fetch the recorded call for `COc1ccc(-c2cnnn2-c2nonc2-n2cccc2)cc1OC` here
Reply: No

Ask: Give the logged outcome of this assay for the following compound: `N#Cc1c(Nc2ccccc2)nc2n(c1=O)-c1ccccc1Sc1ccccc1-2`
Reply: No

Ask: I'd appreciate the recorded outcome for `CCOC(=O)/C(C#N)=C1/C(=O)Nc2ccccc21` from this test.
Reply: No

Ask: So what was the verdict on `COc1ccc(/C=C/c2c(C(C)=O)c(C)nc3ccccc23)cc1` in this test?
Reply: No

Ask: Which result was noted for this compound in the test: `Cc1ccc2nc(-c3cc4c([nH]c5ccccc54)c(-c4ccc(F)c(F)c4)n3)[nH]c2c1`
Reply: No

Ask: Record lookup: outcome of this test for `CC(C)CSc1nc(NN)c(C#N)c(-c2ccc(F)cc2)n1` ?
Reply: No

Ask: Recorded test call requested for `C=CCn1cc(-c2nc3ccccc3s2)c2cc(-c3ccc4c5c(cccc35)C(=O)N(CCN3CCNCC3)C4=O)ccc21`
Reply: No

Ask: Called result for `N=C(N)c1ccc(-c2cc(Cl)cc(Cl)c2)cn1`
Reply: No

Ask: What is the recorded call for this compound in the test? `Cc1ccc(S(=O)(=O)NCCNc2nccc(-c3c(-c4cccc(N)c4)nc4sccn34)n2)cc1`
Reply: No

Ask: Give the logged outcome of this assay for the following compound: `COc1ccc(S(=O)(=O)Nc2cc(/C=C\c3cc(OC)c(OC)c(OC)c3)cc(OC)c2OC)cc1`
Reply: No

Ask: Given `COc1ccc(CNCCCN2C(=O)c3ccc4c5c(ccc(c35)C2=O)C(=O)N(CCCNCCCCNCCCN)C4=O)c(OC)c1OC` , state the outcome it received in this test.
Reply: No

Ask: Status in this test for `N[C@@H]1CCN(C(=O)c2cc3cc(Cl)c(F)c(F)c3[nH]2)C1` ?
Reply: No

The measured values listed here are drawn from PubChem BioAssay (NCI).
